// provenance: patent US11529299B2

System: M.Furfur 7892 cells
measurement_notes: Modified Fractional Inhibitory Concentration (MFIC), anti-Malassezia activity of combinations
Assay type: cell-based, Malassezia furfur
measurement_context: Table 3; chelator as Material #2 combined with the 2-pyridinol-N-oxide material at 1/2 its MIC; titrated from 400 ppm

molecule | sign | MFIC [ppm]
O=C(O)CC(O)(CC(=O)O)C(=O)O | > | 400
O=P(O)(O)CN(CCN(CP(=O)(O)O)CP(=O)(O)O)CCN(CP(=O)(O)O)CP(=O)(O)O | = | 50
CC(C(=O)O)N(CC(=O)O)CC(=O)O (centres unmarked) | > | 400
CC(=O)N(O)CCCCCNC(=O)CCC(=O)N(O)CCCCCNC(=O)CCC(=O)N(O)CCCCCN | = | 5
O=C(O)CN(CCN(CC(=O)O)CC(=O)O)CCN(CC(=O)O)CC(=O)O | = | 37
